Prothrombin (Homo sapiens, UniProt P00734): reported Ki for various molecules.
A complete answer gives the number followed by the unit.

See these solved cases before continuing.
molecule	measuredValue
CCOc1cc(OC2CCOC2)cc(C(Nc2ccc(C(=N)N)cc2)C(=O)O)c1 (centres undefined)	10.7 µM
CCOc1cc(OCC)c(F)c(C(Nc2ccc(C(=N)N)cc2)C(=O)O)c1 (racemic)	8.8 µM
CCOc1cc(O[C@@H]2CCOC2)c(F)c([C@@H](Nc2ccc(C(=N)N)cc2)C(=O)O)c1	7.1 µM

We next turn to a different molecule, shown below.
Query: // Ki lookup, key: `COc1ccc(-c2ccc(C(=O)N[C@H](CO)C(C)(C)C)cc2C(=O)O)c(C(=O)Nc2ccc(C(=N)N)cc2)n1`
Response: 4.3 µM

----------
System: Coagulation factor X (Homo sapiens, UniProt P00742) | Read-out: Ki
Sequence (P00742 41-179 limits assumed): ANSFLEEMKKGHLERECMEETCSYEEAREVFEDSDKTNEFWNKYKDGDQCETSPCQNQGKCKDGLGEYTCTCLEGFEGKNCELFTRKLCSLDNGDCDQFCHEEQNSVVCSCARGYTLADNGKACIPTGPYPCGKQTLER
Sequence (P00742 235-488 limits assumed): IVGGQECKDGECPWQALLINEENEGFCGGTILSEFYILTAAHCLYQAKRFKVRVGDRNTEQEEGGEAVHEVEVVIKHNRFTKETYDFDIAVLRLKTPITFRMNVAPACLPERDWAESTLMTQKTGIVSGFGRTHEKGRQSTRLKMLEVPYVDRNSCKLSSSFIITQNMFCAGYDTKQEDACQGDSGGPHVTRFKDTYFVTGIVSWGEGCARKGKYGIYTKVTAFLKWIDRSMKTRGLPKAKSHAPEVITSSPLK
Don't forget the unit after the number, please.

Record excerpt, results attached:
molecule	studyTarget	measuredValue
CCOc1cc(OC2CCOC2)cc(C(Nc2ccc(C(=N)N)cc2)C(=O)O)c1 (centres undefined)	Coagulation factor X (Homo sapiens, UniProt P00742)	2.9 µM
CCOc1cc(O[C@@H]2CCOC2)c(F)c([C@@H](Nc2ccc(C(=N)N)cc2)C(=O)O)c1	Coagulation factor X (Homo sapiens, UniProt P00742)	1.2 µM
CCOc1cc(OCC)c(F)c(C(Nc2ccc(C(=N)N)cc2)C(=O)O)c1 (racemic)	Coagulation factor X (Homo sapiens, UniProt P00742)	3 µM

Moving on to another molecule below.
Query: Fill in: Ki of `COc1ccc(-c2ccc(C(=O)N[C@H](CO)C(C)(C)C)cc2C(=O)O)c(C(=O)Nc2ccc(C(=N)N)cc2)n1` is ___
Response: 0.15 µM
